Biological target: Jak2 (UniProt O60674)
Sequence (O60674 whole entry, looked up): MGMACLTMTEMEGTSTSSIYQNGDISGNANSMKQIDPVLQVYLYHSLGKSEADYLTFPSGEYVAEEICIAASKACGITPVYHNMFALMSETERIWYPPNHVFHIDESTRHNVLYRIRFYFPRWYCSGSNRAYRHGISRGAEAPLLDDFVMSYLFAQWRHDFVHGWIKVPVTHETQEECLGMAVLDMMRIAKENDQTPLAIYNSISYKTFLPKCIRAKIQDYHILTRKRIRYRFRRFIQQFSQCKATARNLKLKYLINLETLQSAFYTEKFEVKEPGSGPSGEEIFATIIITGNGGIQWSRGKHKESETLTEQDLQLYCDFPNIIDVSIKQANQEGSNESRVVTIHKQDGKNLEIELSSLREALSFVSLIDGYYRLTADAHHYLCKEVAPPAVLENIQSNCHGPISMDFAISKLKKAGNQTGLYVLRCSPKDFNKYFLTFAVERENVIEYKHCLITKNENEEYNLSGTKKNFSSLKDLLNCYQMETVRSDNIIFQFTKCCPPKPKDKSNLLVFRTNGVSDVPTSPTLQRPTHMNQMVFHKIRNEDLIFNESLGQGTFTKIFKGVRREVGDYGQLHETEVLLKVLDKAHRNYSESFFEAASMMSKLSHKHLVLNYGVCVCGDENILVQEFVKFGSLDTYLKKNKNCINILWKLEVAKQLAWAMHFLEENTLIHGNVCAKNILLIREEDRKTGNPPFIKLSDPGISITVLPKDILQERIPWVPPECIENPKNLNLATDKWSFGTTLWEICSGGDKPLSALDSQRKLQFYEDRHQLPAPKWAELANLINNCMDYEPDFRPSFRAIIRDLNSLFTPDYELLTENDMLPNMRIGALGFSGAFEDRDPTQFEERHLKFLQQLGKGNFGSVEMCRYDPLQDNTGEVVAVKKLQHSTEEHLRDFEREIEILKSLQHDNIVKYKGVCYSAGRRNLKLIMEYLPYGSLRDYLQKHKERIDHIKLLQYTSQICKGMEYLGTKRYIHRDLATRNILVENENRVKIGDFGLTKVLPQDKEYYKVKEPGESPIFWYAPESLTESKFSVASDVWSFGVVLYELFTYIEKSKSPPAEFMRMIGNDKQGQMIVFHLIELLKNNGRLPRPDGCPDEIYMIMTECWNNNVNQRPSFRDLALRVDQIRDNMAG
Assay: phosphorylation enrichment, bacterial display (enrichment ratio); higher = better substrate or ligand; peptides without Tyr show the background;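 note: 11-residue human phosphosite peptides and single-mutation variants displayed on the E. coli surface, counted by deep sequencing, each peptide's frequency after selection divided by its frequency in the unselected input library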;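 note: frequency after pTyr selection over input frequency; kinase dosed for 20-30% of maximal phosphorylation in three min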
ENDPOINT: phosphorylation enrichment
Please reply with the number alone, leaving off any unit.

Please review the following examples before continuing.
The value of phosphorylation enrichment recorded for VLAAQYTTVGR [SGSH_Y240_D235V] when tested on Jak2 (UniProt O60674) reads 0.426

The value of phosphorylation enrichment recorded for VPDTNYTSDEE [STK33_Y439_A437T] when tested on Jak2 (UniProt O60674) reads 1.07

The value of phosphorylation enrichment recorded for FRARAYGFRGP [CHGA_Y381] when tested on Jak2 (UniProt O60674) reads 0.686

Now for a further sequence.
The value of phosphorylation enrichment recorded for EMQAAYQKVVA [HBD_Y131_Q126E] when tested on Jak2 (UniProt O60674) reads 0.581
